- testMethodNotes: inhibitors of TNFa-induced NFkB p65 translocation, primary screen, imaging, HUVEC, MLSMR starter and 10KST1 sets (AID 438);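 note: compound added about 3h40 before a 20 min TNFalpha stimulation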
- condition: HUVEC TNFa-induced p65 nuclear translocation; measured here: nuclei count (cytotoxicity indicator), at 2.08 µM
measuredAttribute: cell count
A bare number is all that is needed in reply.

INSERT INTO assay_data (compound, reportedresult) VALUES
  ('CCCCc1ccc(NC(=O)N[C@H](C(=O)O)C(C)CC)cc1 (stereo partly specified)', 610),
  ('CCC(C)c1ccc(NC(=O)C2CC2)cc1 (stereo unspecified)', 466),
  ('CCc1ccccc1N=C1SCC(=O)N1C', 368),
  ('O=C(Cn1nc(C(F)(F)F)c2c1CCCC2)NCCN1CCOCC1', 584),
  ('O=C(CN1CCOCC1)N1CCN(C(=O)CN2CCOCC2)CC1', 557);

Proceeding to the next compound to report its cell count.
Exercise: State the recorded cell count for this entry: CCOC(=O)c1ccc(Oc2nc(NC)nc(OC)n2)cc1
Key: 635

###

inhibition for assorted compounds
- testMethodNotes: loss of swimming-algae plug formation – whole organism, Chlamydomonas reinhardtii, WT vs cilia-less mutant, absorbance, 96-well, primary screen (AID 463189);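 note: 0% = wild type cc124 cells in DMSO and 100% = ciliumless bld1 mutant cells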
- condition: Chlamydomonas reinhardtii gravitaxis, OD600 absorbance, 2 days; at 10 µM; stronger effect = higher value
Numbers only here, please. The scale is %.

Solved entries (count: 6):
INSERT INTO results (compound, reportedresult) VALUES
  ('NCCCNCCSP(=O)(O)O', 1.58),
  ('CCCCCCCCCC(=O)NC(CN1CCOCC1)[C@H](O)c1ccccc1 (some centres undefined)', -8.57),
  ('COc1ccccc1N1CCN(CCCCNC(=O)c2ccc3ccccc3c2)CC1', 6.15),
  ('CC(C)Cn1c(=O)n(C)c(=O)c2[nH]cnc21', 1.72),
  ('N[C@H](CCC(=O)NCS(=O)(=O)O)C(=O)O', 4.82),
  ('COC(=O)[C@H](NC(=O)c1cc(-c2ccccc2)nc2ccccc12)c1ccccc1', 1.92);

Exercise: Which inhibition is reported for this compound? C1CCc2nnnn2CC1
Key: 5.68

Exercise: Sample Nc1c2c(nc3ccccc13)CCCC2O (centres undefined) — what was its inhibition?
Key: 2

Exercise: Look up inhibition for this compound: CC(N)(C(=O)O)c1ccc(C(=O)O)cc1 (centres undefined)
Key: 5.26

Exercise: Need inhibition, item O=C1OC(=O)C2C3CCC(O3)C12 (centres undefined)
Key: 2.39

Exercise: Name the reported inhibition value associated with the compound N[C@@H](Cc1cnc[nH]1)C(=O)O
Key: -1.75

Exercise: So what does the record say about inhibition for NC(=O)c1ncn([C@@H]2O[C@H](CO)[C@@H](O)[C@H]2O)n1 ?
Key: 8.25

Exercise: Any idea what inhibition was measured for Cc1cc2c(cc1Cl)N(C(=O)Nc1ccnc3ccccc13)CC2 ?
Key: -0.614

###

- assayedTarget: Muscarinic acetylcholine receptor M4 (Homo sapiens) (UniProt P08173)
- Sequence (P08173 whole entry, looked up): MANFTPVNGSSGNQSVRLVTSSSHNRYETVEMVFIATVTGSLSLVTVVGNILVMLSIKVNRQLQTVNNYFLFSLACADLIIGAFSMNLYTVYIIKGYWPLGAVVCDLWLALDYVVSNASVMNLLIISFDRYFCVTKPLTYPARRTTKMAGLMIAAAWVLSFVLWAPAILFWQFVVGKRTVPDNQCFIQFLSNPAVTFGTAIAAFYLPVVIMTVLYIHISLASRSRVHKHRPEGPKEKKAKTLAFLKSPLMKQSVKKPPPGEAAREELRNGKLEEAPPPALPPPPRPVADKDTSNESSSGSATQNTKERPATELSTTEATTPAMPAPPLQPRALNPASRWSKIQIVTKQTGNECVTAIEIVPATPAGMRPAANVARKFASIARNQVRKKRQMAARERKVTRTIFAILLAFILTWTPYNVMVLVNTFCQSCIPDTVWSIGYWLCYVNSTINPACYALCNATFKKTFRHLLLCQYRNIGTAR
- testMethodNotes: M4-linked GIRK flux change, two-sided – cell-based, HEK293 M4/GIRK, thallium flux, BTC-AM, M4 allosteric agonist project, primary screen (AID 625);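 note: thallium influx through GIRK channels coupled to M4 in HEK293 cells with BTC-AM dye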
- condition: at 10 µM, actives lie on both sides
// values below are reported fluorescence slope
Could you keep your reply to the number by itself?

Sample answers from the record:
INSERT INTO results (compound, reportedresult) VALUES
  ('CN(C)c1ccc(CNC2CC(C)(C)NC(C)(C)C2)cc1', 0.00412),
  ('O=C(NC1(C(F)(F)F)NC(=O)N(Cc2ccco2)C1=O)c1cccnc1 (stereo unspecified)', 0.00405),
  ('CC(NC(=O)c1ccco1)C(c1cccs1)N1CCN(c2ccc(F)cc2)CC1 (stereo unspecified)', 0.00654),
  ('CCOC(=O)COc1ccc(S(=O)(=O)Nc2ccc3c(c2)OCO3)cc1', 0.00399);

Exercise: Look at this compound and give its reported fluorescence slope. O=C(Oc1ccccc1)c1c(Cl)cccc1P(=O)(O)O
Key: 0.00459

Exercise: Look up fluorescence slope for this compound: COCCNC(=O)Cn1nc(C(F)(F)F)c(Br)c1C
Key: 0.00551

###

// reported NADPH fluorescence slope per item
- assayedTarget: Voltage-gated potassium channel subunit beta-2 (Rattus norvegicus) (UniProt P62483)
- Sequence (P62483 whole entry, looked up): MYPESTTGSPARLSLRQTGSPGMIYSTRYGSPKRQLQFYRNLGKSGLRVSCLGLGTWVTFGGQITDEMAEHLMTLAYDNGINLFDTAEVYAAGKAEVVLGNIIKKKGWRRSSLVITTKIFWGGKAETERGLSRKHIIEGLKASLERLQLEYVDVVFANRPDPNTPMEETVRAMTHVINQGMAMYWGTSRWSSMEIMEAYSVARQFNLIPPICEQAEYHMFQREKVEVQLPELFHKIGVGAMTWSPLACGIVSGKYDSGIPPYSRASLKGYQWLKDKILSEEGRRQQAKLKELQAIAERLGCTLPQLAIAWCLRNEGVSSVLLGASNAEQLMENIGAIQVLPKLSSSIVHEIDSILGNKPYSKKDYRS
- testMethodNotes: enhancers of rat Kvbeta2 NADPH turnover – biochemical, NADPH fluorescence, primary screen (AID 623);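 note: fluorescence intensity change per second fitted from 20 to 320 s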
- condition: Recombinant KvBeta, NADPH fluorescence decrease slope, 10 min; at 10 µM; stronger effect = lower value
Could you respond with only the numeric value?

Would you please look over these solved cases?
INSERT INTO measurements (compound, reportedresult) VALUES
  ('CC(C)(C)OC(=O)N1CCC(C(=O)N[C@H](Cc2ccccc2)C(=O)O)CC1', '-5.3e-05'),
  ('OCCN1CCN(CC(O)COc2ccc3ccccc3c2)CC1 (stereo not given)', '-7.3e-05'),
  ('Cc1nn(-c2ccc(F)cc2)c2sc(C(=O)OCC(=O)N3CCC(C)CC3)cc12', '-3.9e-05'),
  ('CC(=O)c1cccc(NC(=O)N2CCCC2C(=O)NCc2ccc(C)cc2)c1 (stereo not given)', '-5.5e-06');

Exercise: Suppose we examine the compound Cc1nn(-c2ccccc2)c(C)c1C(=O)OCC(=O)c1c(N)n(CC(C)C)c(=O)n(C)c1=O ; what NADPH fluorescence slope value has been reported?
Key: 0.000168

Exercise: Which NADPH fluorescence slope value belongs to N#CC1=C(N)n2c(s/c(=C\c3ccco3)c2=O)=C(C#N)C1c1ccco1 (stereo not given) ?
Key: -3.6e-05

###

- testMethodNotes: inhibitors of TNFa-induced NFkB p65 translocation, primary screen, imaging, HUVEC, MLSMR starter and 10KST1 sets (AID 438);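 note: compound added about 3h40 before a 20 min TNFalpha stimulation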;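 for inhibition: signal is the nuclear over cytoplasmic p65 intensity ratio per well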
- condition: HUVEC TNFa-induced p65 nuclear translocation; at 2 µM, stronger effect = higher value, 0% TNFa-plus-vehicle, 100% no-TNFa wells
measuredAttribute: inhibition (%)
Give the number; % is assumed, so skip it.

Below: 4 compounds and their reported inhibition.
INSERT INTO results (compound, reportedresult) VALUES
  ('NC(=O)C1(N2CCCCC2)CCN(C2CC(=O)N(Cc3cccs3)C2=O)CC1 (stereo unspecified)', -2.6),
  ('Cc1ccccc1NC(=O)c1ccc(NC(=O)c2ccco2)cc1', -1),
  ('CC(=O)Nc1ccc(NC2=CC(=O)CC(C)(C)C2)cc1', 1),
  ('COc1cccc(-c2cc(C(F)(F)F)n3nc(N)nc3n2)c1', -0.8);

Exercise: Could you share which inhibition value was measured for COc1cccc(-c2cc(C(=O)N3CCCc4ccccc43)no2)c1 ?
Key: -23

Exercise: Quick check: inhibition of Cc1cccc(N2CCN(C(=O)c3cc4c(=O)[nH]c5ccccc5c4n3C)CC2)c1C ?
Key: 5.8

###

- testMethodNotes: inhibitors of TNFa-induced NFkB p65 translocation, primary screen, imaging, HUVEC, MLSMR starter and 10KST1 sets (AID 438);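 note: compound added about 3h40 before a 20 min TNFalpha stimulation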
- condition: HUVEC TNFa-induced p65 nuclear translocation; measured here: nuclei count (cytotoxicity indicator), at 2.08 µM
Categories are assigned from the measured cell count using these intervals: Low: < 300; Mid: ≥ 300 and < 500; High: ≥ 500

Previously resolved entries follow.
INSERT INTO assay_data (molecule, classname) VALUES
  ('O=C1c2ccccc2NC(c2ccco2)N1O (configuration not stated)', 'Mid'),
  ('CCc1nc2c(cnn2-c2ccc(Cl)cc2)c(=O)n1-c1ccc2c(c1)OCCO2', 'High'),
  ('CC(C)CNC(=O)c1ccccc1NC(=O)CN(c1ccc2c(c1)OCCO2)S(C)(=O)=O', 'Mid');

Exercise: Class (by measured cell count) for O=C(COc1ccc(Cl)cc1)Nc1ncccn1
Key: Mid

Exercise: Which category does the recorded cell count put CCn1c(=S)sc2nc(C)sc21 in?
Key: Low

Exercise: Lab note: sort Cc1ccc(Oc2ccc(-c3nc(N)nc(N)n3)cc2)cc1 into the matching cell count band.
Key: Mid

###

- assayedTarget: Voltage-gated potassium channel subunit beta-2 (Rattus norvegicus) (UniProt P62483)
- testMethodNotes: inhibitors of rat Kvbeta2 reductase activity – biochemical, NADPH fluorescence, primary screen (AID 622);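 note: slope of raw intensity against log time taken from 70 to 1610 s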
- condition: recombinant KvBeta, 4-cyanobenzaldehyde reduction, at 10 µM, stronger effect = higher value
measuredAttribute: fluorescence slope
Give a plain numeric answer without units written out.

INSERT INTO measurements (compound, reportedresult) VALUES
  ('Cc1ccc(S(=O)(=O)N[C@@H](C)C(=O)N2CCC(C(=O)N3CCC[C@H]3C(=O)O)CC2)cc1', -0.406);

Exercise: Which fluorescence slope is reported for this compound? CCOC(=O)c1sc(NC(=O)CSc2nc3c(cc2C#N)CCC3)c(C#N)c1C
Key: -0.457

Exercise: Please give the measured fluorescence slope for this compound: CN(Cc1cccs1)c1ncnc2sccc12
Key: -0.456

Exercise: Which measured fluorescence slope value corresponds to c1ccc2c(-c3nc(C4CCCCC4)no3)cc(-c3ccncc3)nc2c1 ?
Key: -0.535

Exercise: // lookup fluorescence slope for COc1ccccc1-c1c(C)nn2c(N3CCC4(CC3)OCCO4)cc(C)nc12
Key: -0.545

Exercise: Which fluorescence slope is reported for this compound? CCC(C)NC(=O)CSC1=Nc2ccccc2C2=NC(CC(=O)NCc3ccccc3)C(=O)N12 (stereo not drawn)
Key: -0.461

Exercise: What measured fluorescence slope goes with O=C(NC1CCCCC1)[C@H](O)[C@@H](O)C(=O)NC1CCCCC1 ?
Key: -0.381

Exercise: Name the reported fluorescence slope value associated with the compound O=c1c2ccccc2cnn1-c1nc2ccccc2s1
Key: -0.133

Exercise: Form field: reported fluorescence slope of Cc1cccc2cc(CN(Cc3nnnn3C3CCCC3)C3CCCCC3)c(=O)[nH]c12
Key: -0.466

Exercise: Which fluorescence slope value belongs to Cc1cc2c(nn1)CCC/C2=N\O ?
Key: -0.552

Exercise: Would you kindly share the measured fluorescence slope for CCCS(=O)(=O)N1CCN(C(=O)CCC2CCCC2)CC1 ?
Key: -0.435

Exercise: Sample CC(C(=O)N1CCCCC1)n1ncn2cccc2c1=O (stereo not drawn) — what was its fluorescence slope?
Key: -0.595
